// data source = paper PMC3519852

Biological target: ICL (Pseudomonas aeruginosa, UniProt Q9I0K4)
Sequence (Q9I0K4 1-531): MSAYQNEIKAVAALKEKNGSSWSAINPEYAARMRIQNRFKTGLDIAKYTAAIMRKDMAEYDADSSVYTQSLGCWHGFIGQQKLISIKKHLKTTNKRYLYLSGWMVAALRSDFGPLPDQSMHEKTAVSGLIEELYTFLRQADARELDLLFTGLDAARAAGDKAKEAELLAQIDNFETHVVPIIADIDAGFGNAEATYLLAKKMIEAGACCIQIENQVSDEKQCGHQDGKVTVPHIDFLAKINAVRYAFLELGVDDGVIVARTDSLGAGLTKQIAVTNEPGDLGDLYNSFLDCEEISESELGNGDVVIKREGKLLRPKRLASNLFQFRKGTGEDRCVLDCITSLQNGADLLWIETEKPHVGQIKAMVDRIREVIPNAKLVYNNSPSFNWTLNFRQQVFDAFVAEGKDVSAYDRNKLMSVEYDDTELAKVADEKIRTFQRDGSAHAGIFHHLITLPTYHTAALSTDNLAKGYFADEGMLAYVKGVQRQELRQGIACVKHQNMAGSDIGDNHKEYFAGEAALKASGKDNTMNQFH
Assay: absorbance at […] nm, phenylhydrazine assay
parameter: log10 IC50 (log10 of the value in µM)

[[record]]
compound = "N=C(N)Nc1cccc2ncccc12"
obs_value = -0.72

[[record]]
compound = "CC(C)(C)OC(=O)NC(=Nc1cc(CCC(=O)O)ccn1)NC(=O)OC(C)(C)C"
obs_value = -1.52

[[record]]
compound = "N=C(N)Nc1ccc2nn[nH]c2c1"
obs_value = -0.43

[[record]]
compound = "COc1ccccc1N1CCN(CCCNC(=O)C(Cc2ccc(F)c(F)c2)C(C)=O)CC1 (racemic)"
obs_value = -0.62

[[record]]
compound = "Nc1nnc(SCc2ccc(O)c3ncccc23)s1"
obs_value = -0.16

[[record]]
compound = "CC(C)(C)OC(=O)/N=C(\\NC(=O)OC(C)(C)C)Nc1cc(Cl)ccn1"
obs_value = -0.77

